# assayedTarget: PI3K gamma (Homo sapiens, UniProt P48736)
# Sequence (P48736 144-1102 limits assumed): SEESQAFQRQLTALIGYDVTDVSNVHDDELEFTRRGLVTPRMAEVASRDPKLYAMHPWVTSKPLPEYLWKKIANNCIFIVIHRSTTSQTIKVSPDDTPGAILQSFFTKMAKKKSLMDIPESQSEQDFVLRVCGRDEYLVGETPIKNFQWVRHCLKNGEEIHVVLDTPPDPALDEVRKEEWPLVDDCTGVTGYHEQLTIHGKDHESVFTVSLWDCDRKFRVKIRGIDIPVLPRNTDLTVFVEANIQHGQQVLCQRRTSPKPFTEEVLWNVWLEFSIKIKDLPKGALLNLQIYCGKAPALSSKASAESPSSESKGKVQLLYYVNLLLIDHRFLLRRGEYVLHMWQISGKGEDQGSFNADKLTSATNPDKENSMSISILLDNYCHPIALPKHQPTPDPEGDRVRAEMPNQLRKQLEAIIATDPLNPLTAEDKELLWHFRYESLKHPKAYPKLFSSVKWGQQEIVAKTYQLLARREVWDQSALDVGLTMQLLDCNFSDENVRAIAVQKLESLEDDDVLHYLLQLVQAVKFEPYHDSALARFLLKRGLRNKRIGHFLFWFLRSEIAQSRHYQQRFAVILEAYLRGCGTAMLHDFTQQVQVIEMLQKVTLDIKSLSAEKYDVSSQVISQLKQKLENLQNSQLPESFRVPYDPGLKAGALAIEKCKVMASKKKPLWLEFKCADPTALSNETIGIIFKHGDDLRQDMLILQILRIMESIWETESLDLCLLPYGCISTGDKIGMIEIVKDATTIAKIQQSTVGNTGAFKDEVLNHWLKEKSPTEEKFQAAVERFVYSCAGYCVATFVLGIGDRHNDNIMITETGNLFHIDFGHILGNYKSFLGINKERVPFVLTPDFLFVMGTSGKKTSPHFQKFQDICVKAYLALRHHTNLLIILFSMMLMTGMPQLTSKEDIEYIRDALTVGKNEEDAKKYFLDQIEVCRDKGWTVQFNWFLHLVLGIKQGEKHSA
metric: pIC50
Answer as the number alone; pIC50 is minus log10 of concentration in mol/L.

Some solved entries appear below for comparison.
smilesRecord: COc1cc(-c2cnc3ccc(-c4cnc(N)c(C(F)(F)F)c4)nn23)ccc1C(=O)O
numericValue: 6.39
//
smilesRecord: COc1cccc(-c2ccc3ncc(-c4cnc(N)c(C(F)(F)F)c4)n3n2)c1
numericValue: 5.59

The reported pIC50 of the molecule CN(C)C(=O)c1ccc(CNC(=O)c2ccc(-c3cnc4ccc(-c5cnc(N)c(C(F)(F)F)c5)nn34)cc2)cc1 was 6.25

The reported pIC50 of the molecule Nc1ncc(-c2ccc3ncc(-c4ccc(C(=O)N5CCN(Cc6cccnc6)CC5)c(F)c4)n3n2)cc1C(F)(F)F was 6.02

The reported pIC50 of the molecule COc1cc(-c2cnc3ccc(-c4cnc(N)c(C(F)(F)F)c4)nn23)c(F)cc1C(=O)NCCN1CCS(=O)(=O)CC1 was 5.90

The reported pIC50 of the molecule COc1ccc(-c2ccc3ncc(-c4cncc(C(F)(F)F)c4)n3n2)cc1OC was 5.97

The reported pIC50 of the molecule COc1cc(-c2cnc3ccc(-c4cnc(N)c(C(F)(F)F)c4)nn23)c(F)cc1C(=O)NCCn1ccnc1 was 5.62

###

Entries and their pIC50 values follow.
# assayedTarget: PI3K delta (Homo sapiens, UniProt O00329)
# Construct: for the full-length p110-d subunit are generated and fused by overlapping PCR; His tag (C); Tn5 (Trichoplusia ni) or TiniPro insect cells
# Sequence (O00329 with tags, fused parts or gaps limits assumed): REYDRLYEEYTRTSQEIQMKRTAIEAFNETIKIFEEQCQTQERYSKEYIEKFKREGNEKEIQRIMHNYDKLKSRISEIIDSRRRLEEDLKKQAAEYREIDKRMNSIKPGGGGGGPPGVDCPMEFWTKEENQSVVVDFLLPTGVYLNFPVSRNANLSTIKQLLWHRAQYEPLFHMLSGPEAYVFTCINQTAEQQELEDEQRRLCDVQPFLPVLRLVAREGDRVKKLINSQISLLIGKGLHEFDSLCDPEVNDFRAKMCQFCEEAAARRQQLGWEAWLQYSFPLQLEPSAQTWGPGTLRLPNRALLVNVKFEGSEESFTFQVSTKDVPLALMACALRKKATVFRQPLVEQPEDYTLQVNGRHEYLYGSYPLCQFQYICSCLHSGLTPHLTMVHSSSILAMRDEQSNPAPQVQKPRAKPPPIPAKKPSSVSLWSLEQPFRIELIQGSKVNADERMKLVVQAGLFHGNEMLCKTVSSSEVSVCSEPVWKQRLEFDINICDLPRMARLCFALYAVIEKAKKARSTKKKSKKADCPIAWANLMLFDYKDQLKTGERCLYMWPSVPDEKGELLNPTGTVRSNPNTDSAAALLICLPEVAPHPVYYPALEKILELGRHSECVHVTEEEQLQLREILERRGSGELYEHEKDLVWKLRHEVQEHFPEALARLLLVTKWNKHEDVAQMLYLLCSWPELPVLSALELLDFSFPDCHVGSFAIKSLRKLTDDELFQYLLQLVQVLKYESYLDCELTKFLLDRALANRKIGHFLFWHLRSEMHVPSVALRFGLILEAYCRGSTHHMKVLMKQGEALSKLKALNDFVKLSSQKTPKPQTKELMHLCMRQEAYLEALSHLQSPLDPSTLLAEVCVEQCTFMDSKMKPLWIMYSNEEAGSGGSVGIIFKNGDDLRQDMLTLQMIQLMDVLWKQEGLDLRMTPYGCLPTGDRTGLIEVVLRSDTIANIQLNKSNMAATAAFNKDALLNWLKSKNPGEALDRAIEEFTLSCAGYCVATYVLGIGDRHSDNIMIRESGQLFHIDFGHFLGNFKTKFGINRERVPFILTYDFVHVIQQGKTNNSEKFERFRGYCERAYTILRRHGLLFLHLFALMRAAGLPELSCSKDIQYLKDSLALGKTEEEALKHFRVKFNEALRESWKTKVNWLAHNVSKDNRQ
# assayName: PI3 kinase assay (Kinase-Glo luminescence), PI3K delta
# setupConditions: Enzymatic Data; read-out: PI3K delta IC50 [umol]
# Method: In a more preferred assay, the kinase reaction is performed in a final volume of 10 μL per well of a low volume non binding CORNING, 384 well black plate (Cat. No. #3676). The final concentrations of ATP and phosphatidyl inositol (PI) in the assay are 1 μM and 10 μg/mL respectively. […] […] is determined by a four parameter curve fitting routine that comes aloneg with “excel fit”. […] Alternatively, IC50 values are calculated using idbsXLfit model 204, which is a 4 parameter logistic model. […]
Answer as the number alone; pIC50 is minus log10 of concentration in mol/L.

Some solved entries appear below for comparison.
smilesRecord: COc1cc(-c2cnc3ccc(-c4cnc(N)c(C(F)(F)F)c4)nn23)ccc1OCCCN
pIC50: 7.14
//
smilesRecord: Nc1ncc(-c2cnc3ccc(-c4ccc(OCC5(CNC(=O)C6CC6)COC5)cc4)nn23)cc1C(F)(F)F
pIC50: 6.86

Here's the next entry for you.
The reported pIC50 of the compound CC(C)C(=O)NCCOc1ccc(-c2ccc3ncc(-c4cnc(N)c(C(F)(F)F)c4)n3n2)cc1 was 7.01

###

Entries and their pIC50 values follow.
# assayedTarget: PI3K beta (Homo sapiens, UniProt P42338)
# Construct: for the full-length p110-b subunit are generated and fused by overlapping PCR; His tag (C); Tn5 (Trichoplusia ni) or TiniPro insect cells
# Sequence (P42338 with tags, fused parts or gaps limits assumed): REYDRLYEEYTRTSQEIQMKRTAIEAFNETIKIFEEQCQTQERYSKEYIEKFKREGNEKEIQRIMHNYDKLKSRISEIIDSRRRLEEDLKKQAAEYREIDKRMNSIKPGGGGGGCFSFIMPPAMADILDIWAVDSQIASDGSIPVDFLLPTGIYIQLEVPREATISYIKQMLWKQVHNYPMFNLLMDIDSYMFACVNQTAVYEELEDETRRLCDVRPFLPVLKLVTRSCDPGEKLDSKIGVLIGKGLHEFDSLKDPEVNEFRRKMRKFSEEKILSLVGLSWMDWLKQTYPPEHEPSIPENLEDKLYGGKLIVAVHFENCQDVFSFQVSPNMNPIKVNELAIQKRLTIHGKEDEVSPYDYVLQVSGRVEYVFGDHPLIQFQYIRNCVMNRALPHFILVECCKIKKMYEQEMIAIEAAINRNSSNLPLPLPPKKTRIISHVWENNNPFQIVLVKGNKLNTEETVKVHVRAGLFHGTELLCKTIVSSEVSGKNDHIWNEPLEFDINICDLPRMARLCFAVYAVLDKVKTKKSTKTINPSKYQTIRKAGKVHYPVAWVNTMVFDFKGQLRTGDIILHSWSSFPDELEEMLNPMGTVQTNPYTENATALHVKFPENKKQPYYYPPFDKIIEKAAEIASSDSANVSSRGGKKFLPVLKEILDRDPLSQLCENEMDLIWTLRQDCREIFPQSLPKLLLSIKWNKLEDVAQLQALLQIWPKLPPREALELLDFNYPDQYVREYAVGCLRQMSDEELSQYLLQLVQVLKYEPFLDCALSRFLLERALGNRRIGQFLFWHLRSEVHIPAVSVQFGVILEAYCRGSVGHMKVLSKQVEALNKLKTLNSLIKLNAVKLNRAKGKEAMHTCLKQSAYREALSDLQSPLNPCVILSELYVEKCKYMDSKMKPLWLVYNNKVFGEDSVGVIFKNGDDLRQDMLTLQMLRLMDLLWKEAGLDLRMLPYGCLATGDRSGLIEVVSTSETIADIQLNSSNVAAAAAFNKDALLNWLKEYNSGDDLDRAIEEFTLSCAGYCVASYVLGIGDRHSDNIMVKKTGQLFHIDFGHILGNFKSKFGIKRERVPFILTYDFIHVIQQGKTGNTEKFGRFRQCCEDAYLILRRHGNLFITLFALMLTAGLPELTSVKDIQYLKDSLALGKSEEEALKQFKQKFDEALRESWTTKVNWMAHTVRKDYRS
# assayName: PI3 kinase assay (Kinase-Glo luminescence), PI3K beta
# setupConditions: Enzymatic Data; read-out: PI3K beta IC50 [umol]
Answer as the number alone; pIC50 is minus log10 of concentration in mol/L.

Some solved entries appear below for comparison.
smilesRecord: Nc1ncc(-c2ccc3ncc(-c4ccc(C(=O)O)c(F)c4)n3n2)cc1C(F)(F)F
pIC50: 7.23

smilesRecord: Nc1ncc(-c2ccc3ncc(-c4ccc(C(=O)NCCn5ccnc5)cc4)n3n2)cc1C(F)(F)F
pIC50: 6.88

smilesRecord: COc1cc(-c2ccc3ncc(-c4cnc(N)c(C(F)(F)F)c4)n3n2)ccc1OCCN1CCCC1=O
pIC50: 6.87

smilesRecord: Nc1ncc(-c2cnc3ccc(-c4ccc(OCCN5CCCC5=O)cc4)nn23)cc1C(F)(F)F
pIC50: 5.81

smilesRecord: CC(=O)NCCCOc1ccc(-c2ccc3ncc(-c4cnc(N)c(C(F)(F)F)c4)n3n2)cc1
pIC50: 5.58

smilesRecord: NCCCOc1ccc(-c2ccc3ncc(-c4cnc(N)c(C(F)(F)F)c4)n3n2)cn1
pIC50: 7.09

The reported pIC50 of the compound Nc1ncc(-c2ccc3ncc(-c4ccc(C(=O)N5CCN(Cc6ccc(F)cc6)CC5)c(F)c4)n3n2)cc1C(F)(F)F was 5.39

The reported pIC50 of the compound Nc1ncc(-c2ccc3ncc(-c4ccc(C(=O)N5CCN(CCN6CCOCC6)CC5)cc4)n3n2)cc1C(F)(F)F was 6.29

The reported pIC50 of the compound COc1cc(-c2ccc3ncc(-c4cnc(N)c(C(F)(F)F)c4)n3n2)ccc1OC1CCNCC1 was 6.69

The reported pIC50 of the compound COc1cccc(-c2ccc3ncc(-c4cnc5[nH]ccc5c4)n3n2)c1 was 5.69

The reported pIC50 of the compound Nc1ncc(-c2ccc3ncc(-c4ccc(C(=O)N5CCN(CCO)CC5)cc4)n3n2)cc1C(F)(F)F was 6.29

The reported pIC50 of the compound CC(C)(C)OC(=O)NCCCOc1ccc(-c2ccc3ncc(-c4cnc(N)c(C(F)(F)F)c4)n3n2)cn1 was 5.15

The reported pIC50 of the compound Nc1ncc(-c2cnc3ccc(-c4ccc(OCCn5cccn5)cc4)nn23)cc1C(F)(F)F was 5.39

The reported pIC50 of the compound Nc1ncc(-c2ccc3ncc(-c4ccc(C(=O)N5CCN(Cc6cccnc6)CC5)cc4)n3n2)cc1C(F)(F)F was 6.38

The reported pIC50 of the compound c1cc2cc(-c3cnc4ccc(-c5ccc6c(c5)OCO6)nn34)cnc2[nH]1 was 5.21

The reported pIC50 of the compound Nc1ncc(-c2ccc3ncc(-c4ccc(C(=O)NCCCN5CCOCC5)c(F)c4)n3n2)cc1C(F)(F)F was 7.03

The reported pIC50 of the compound COc1cc(-c2cnc3ccc(-c4cnc(N)c(C(F)(F)F)c4)nn23)ccc1OCCCNC(=O)OC(C)(C)C was 5.67

###

Entries and their pIC50 values follow.
# assayedTarget: PI3K alfa (Homo sapiens, UniProt P42336)
# Construct: for the p110-a subunit (with a deletion of the first 20 amino acids); His tag (C); made in house; host or cells: baculovirus; Tn5 (Trichoplusia ni) or TiniPro insect cells
# Sequence (P42336 with tags, fused parts or gaps limits assumed): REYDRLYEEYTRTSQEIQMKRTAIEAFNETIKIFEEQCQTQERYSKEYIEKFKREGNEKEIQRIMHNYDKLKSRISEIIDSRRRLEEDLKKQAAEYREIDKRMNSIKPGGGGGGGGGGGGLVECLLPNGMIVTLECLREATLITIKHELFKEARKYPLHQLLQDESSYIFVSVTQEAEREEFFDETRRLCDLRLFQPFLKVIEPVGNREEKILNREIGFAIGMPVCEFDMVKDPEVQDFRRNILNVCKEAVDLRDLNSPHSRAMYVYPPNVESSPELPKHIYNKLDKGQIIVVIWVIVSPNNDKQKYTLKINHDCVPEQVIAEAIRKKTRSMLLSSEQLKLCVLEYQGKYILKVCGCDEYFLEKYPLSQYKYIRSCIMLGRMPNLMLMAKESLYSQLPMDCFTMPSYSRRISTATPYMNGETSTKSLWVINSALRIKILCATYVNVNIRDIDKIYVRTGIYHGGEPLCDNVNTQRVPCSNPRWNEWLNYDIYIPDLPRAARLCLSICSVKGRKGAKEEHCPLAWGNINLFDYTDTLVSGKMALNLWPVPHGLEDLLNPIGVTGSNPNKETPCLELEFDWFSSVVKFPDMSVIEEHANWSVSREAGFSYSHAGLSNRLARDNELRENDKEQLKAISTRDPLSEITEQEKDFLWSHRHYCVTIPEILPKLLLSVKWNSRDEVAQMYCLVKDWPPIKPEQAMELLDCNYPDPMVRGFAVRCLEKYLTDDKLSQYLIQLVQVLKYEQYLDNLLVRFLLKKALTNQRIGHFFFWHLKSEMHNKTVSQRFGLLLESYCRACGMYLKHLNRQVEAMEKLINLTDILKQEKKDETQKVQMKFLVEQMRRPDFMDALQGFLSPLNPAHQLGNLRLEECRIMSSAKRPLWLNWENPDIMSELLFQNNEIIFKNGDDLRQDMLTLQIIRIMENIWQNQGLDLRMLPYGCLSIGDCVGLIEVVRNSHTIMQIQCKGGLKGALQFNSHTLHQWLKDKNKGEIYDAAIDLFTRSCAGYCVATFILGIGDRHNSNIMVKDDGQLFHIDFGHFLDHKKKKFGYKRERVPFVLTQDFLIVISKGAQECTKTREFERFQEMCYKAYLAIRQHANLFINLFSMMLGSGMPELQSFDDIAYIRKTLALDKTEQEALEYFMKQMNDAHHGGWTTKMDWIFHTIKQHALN
# assayName: PI3 kinase assay (Kinase-Glo luminescence), PI3K alfa
# Assay type: biochemical
# setupConditions: Enzymatic Data; read-out: PI3K alfa IC50 [umol]
Answer as the number alone; pIC50 is minus log10 of concentration in mol/L.

Some solved entries appear below for comparison.
smilesRecord: CC(C)C(=O)NCCCOc1ccc(-c2ccc3ncc(-c4cnc(N)c(C(F)(F)F)c4)n3n2)cc1OC(F)(F)F
metric: pIC50
numericValue: 6.25
--
smilesRecord: Nc1ncc(-c2ccc3ncc(-c4ccc(C(=O)N5CCN(CCN6CCOCC6)CC5)cc4)n3n2)cc1C(F)(F)F
metric: pIC50
numericValue: 7.92
--
smilesRecord: COc1cc(-c2ccc3ncc(-c4cnc5[nH]ccc5c4)n3n2)ccc1OCCN1CCCC1=O
metric: pIC50
numericValue: 7.40
--
smilesRecord: COc1nc(-c2cnc3ccc(-c4cnc(N)c(C(F)(F)F)c4)nn23)cnc1N
metric: pIC50
numericValue: 7.47
--
smilesRecord: Nc1ncc(-c2ccc3ncc(-c4ccc(C(=O)NCCn5ccnc5)cc4F)n3n2)cc1C(F)(F)F
metric: pIC50
numericValue: 8.10

The reported pIC50 of the compound Nc1ncc(-c2ccc3ncc(-c4ccc(C(=O)N5CCN(Cc6ccncc6)CC5)cc4)n3n2)cc1C(F)(F)F was 7.44

The reported pIC50 of the compound COc1cc(-c2cnc3ccc(-c4cnc(N)c(C(F)(F)F)c4)nn23)ccc1C(=O)N1CCN(c2ccccn2)CC1 was 7.80

###

# assayedTarget: PI3K delta (Homo sapiens)
# Construct: for the full-length p110-d subunit are generated and fused by overlapping PCR; His tag (C); Tn5 (Trichoplusia ni) or TiniPro insect cells
# assayName: PI3 kinase assay (Kinase-Glo luminescence), PI3K delta
# setupConditions: Enzymatic Data; read-out: PI3K delta IC50 [umol]
metric: pIC50
Answer as the number alone; pIC50 is minus log10 of concentration in mol/L.

compound: CC(=O)NCCn1cc(-c2ccc3ncc(-c4cnc(N)c(C(F)(F)F)c4)n3n2)ccc1=O [Example 76]
metric: pIC50
numericValue: 6.82

compound: Nc1ncc(-c2ccc3ncc(-c4ccc5c(cnn5CCCN5CCOCC5)c4)n3n2)cc1C(F)(F)F [Example 140]
metric: pIC50
numericValue: 7.57

compound: Nc1ncc(-c2ccc3ncc(-c4ccc(C(=O)NCCN5CCOCC5)c(F)c4)n3n2)cc1C(F)(F)F [Example 99]
metric: pIC50
numericValue: 7.82

The reported pIC50 of the compound COc1cc(-c2ccc3ncc(-c4cnc(N)c(C(F)(F)F)c4)n3n2)ccc1OCCCN1CCNC1=O [Example 164] was 7.59

The reported pIC50 of the compound O=C1CCCN1CCOc1ccc(-c2ccc3ncc(-c4cnc5[nH]ccc5c4)n3n2)cc1 [Example 98] was 6.92

The reported pIC50 of the compound NCCn1cc(-c2ccc3ncc(-c4cnc(N)c(C(F)(F)F)c4)n3n2)ccc1=O [Example 70] was 7.20
